Test system: HCT-116
Assay: High-throughput calcein AM cytotoxicity assay, HCT-116
Format: cell-based, human
Details: HCT-116 cells; read-out: IC50, HCT-116
Excerpt: Standard errors are depicted with error bars.
endpoint name: IC50 (µM)
Give a bare numeral; the unit µM is implied.

>  <molecule>
CON(C1CCC2(C)C(CCC3C2CCC2(C)C(C4=CC(=O)OC4)CCC32O)C1)C1OC(CO)C(OC2OC(CO)C(O)C(O)C2O)C(O)C1O (stereo not drawn) [37β, maltoside]

>  <experimental system>
HCT-116

>  <IC50, µM>
24

$$$$
>  <molecule>
CON([C@H]1CC[C@@]2(C)[C@H](CC[C@@H]3[C@@H]2CC[C@]2(C)[C@@H](C4=CC(=O)OC4)CC[C@]32O)C1)[C@@H]1O[C@H](CO)[C@H](O)[C@H](O)[C@H]1O [22β, D-galactoside]

>  <experimental system>
HCT-116

>  <IC50, µM>
1.8

$$$$
>  <molecule>
CON([C@H]1CC[C@@]2(C)[C@H](CC[C@@H]3[C@@H]2CC[C@]2(C)[C@@H](C4=CC(=O)OC4)CC[C@]32O)C1)[C@@H]1O[C@H](CO)[C@@H](O)[C@@H](O)[C@H]1O [18β, D-alloside]

>  <experimental system>
HCT-116

>  <IC50, µM>
6

$$$$

Task item: # input molecule: CON([C@H]1CC[C@@]2(C)[C@H](CC[C@@H]3[C@@H]2CC[C@]2(C)[C@@H](C4=CC(=O)OC4)CC[C@]32O)C1)[C@@H]1O[C@H](CO)[C@H](O)[C@@H](O)[C@@H]1O [29β, D-idoside] ; wanted: its IC50
Reply: 2.3

Task item: # input molecule: CON([C@H]1CC[C@@]2(C)[C@H](CC[C@@H]3[C@@H]2CC[C@]2(C)[C@@H](C4=CC(=O)OC4)CC[C@]32O)C1)[C@H]1O[C@@H](CO)[C@H](O)[C@H](O)[C@@H]1O [17β, L-alloside] ; wanted: its IC50
Reply: 0.5

Task item: # input molecule: CON([C@H]1CC[C@@]2(C)[C@H](CC[C@@H]3[C@@H]2CC[C@]2(C)[C@@H](C4=CC(=O)OC4)CC[C@]32O)C1)[C@@H]1O[C@H](CO)[C@@H](O)[C@H](O)[C@@H]1O [27β, D-mannoside] ; wanted: its IC50
Reply: 0.8

Task item: # input molecule: CON([C@H]1CC[C@@]2(C)[C@H](CC[C@@H]3[C@@H]2CC[C@]2(C)[C@@H](C4=CC(=O)OC4)CC[C@]32O)C1)[C@@H]1C[C@@](C)(O)[C@@H](O)[C@H](C)O1 [30β, L-mycaroside] ; wanted: its IC50
Reply: 0.6

###

test system: nine human cancer cell lines and a mouse mammary normal epithelial control line; assay: High-throughput calcein AM cytotoxicity assay, whole cell line panel; conditions: cell line panel, 72 h, calcein AM
endpoint name: cytotoxicity (in words)

>  <compound>
CON([C@H]1CC[C@@]2(C)[C@H](CC[C@@H]3[C@@H]2CC[C@]2(C)[C@@H](C4=CC(=O)OC4)CC[C@]32O)C1)[C@@H]1O[C@H](CO)[C@@H](O)[C@H](O)[C@H]1O [4β, D-glucoside]

>  <endpoint name>
cytotoxicity (in words)

>  <result>
relatively inactive

$$$$
>  <compound>
CON([C@H]1CC[C@@]2(C)[C@H](CC[C@@H]3[C@@H]2CC[C@]2(C)[C@@H](C4=CC(=O)OC4)CC[C@]32O)C1)[C@H]1OC[C@H](O)[C@H](O)[C@H]1O [32β, L-arabinoside]

>  <endpoint name>
cytotoxicity (in words)

>  <result>
relatively inactive

$$$$

Values compiled from patent US8507411B2.
